- Tested on: M. tuberculosis
- Assay type: cell-based, Mycobacterium tuberculosis (ATCC 27294)
- Condition notes: in the presence of 1/10 of the MIC of ethionamide; […]; mean ± standard deviation of two independent replicates
The entries below come with measured MEC (minimum effective concentration) values attached.

Compound: O=C(CCCC1CCCCC1)N1CCCC1 [Compound 14]
Relation qualifier: =
MEC (minimum effective concentration) / µM: 0.4
//
Compound: CN(C)C(=O)OCC1CCCC1 [Compound 26]
Relation qualifier: =
MEC (minimum effective concentration) / µM: 6.3
//
Compound: O=C(CCC1CCCCC1)N1CCCC1 [Compound 13]
Relation qualifier: =
MEC (minimum effective concentration) / µM: 0.8
//
Compound: O=C(NCC1CCCC1)N1CCCC1 [Compound 3]
Relation qualifier: >
MEC (minimum effective concentration) / µM: 50
//
Compound: O=C(/C=C/c1ccoc1)N1CCCC1 [Compound 7]
Relation qualifier: >
MEC (minimum effective concentration) / µM: 50
//
Compound: O=S(=O)(NCC1CCCC1)N1CCCC1 [Compound 6]
Relation qualifier: >
MEC (minimum effective concentration) / µM: 50
//
Compound: O=C(OCCC1CCCC1)N1CCCC1 [Compound 22]
Relation qualifier: =
MEC (minimum effective concentration) / µM: 1.6
//
Compound: O=C(OCC1CCCC1)N1CCCCCC1 [Compound 21]
Relation qualifier: >
MEC (minimum effective concentration) / µM: 50
//
Compound: O=C(OCC1CCCCC1)N1CCCC1 [Compound 25]
Relation qualifier: =
MEC (minimum effective concentration) / µM: 1.6
//
Compound: O=C(OCC1CCCC1)N1CCC1 [Compound 27]
Relation qualifier: =
MEC (minimum effective concentration) / µM: 13
//
Compound: O=C(OCC1CCC1)N1CCCC1 [Compound 24]
Relation qualifier: =
MEC (minimum effective concentration) / µM: 3.1
//
Compound: O=C(NCc1ccoc1)N1CCCC1 [Compound 9]
Relation qualifier: >
MEC (minimum effective concentration) / µM: 50

Taken from paper PMC5474694.
